Tested on: SR
ASSAY COMMENT: NCI tumour cell line growth inhibition, 48 h
Activity calls are given as the source filed them. Rule as the data show it: active = GI50 up to about 1.1 µM and inactive = higher.
MEASURE NAME: GI50

* COc1ccc2c(c1)/C(=C\c1c(Cl)[nH]c3ccccc13)C(=O)N2 | 2.03 µM (inactive)
* O=C(c1ccccc1)c1c(CC(O)c2ccccn2)n(C(=O)c2ccccc2)c2ccccc12 (stereo not drawn) | 15.1 µM (inactive)
* CC(C)C1OCC(CO)CO1 (stereo not drawn) | > 100 µM (inactive)
* COc1ccc(/N=N/N2CCCC2)cc1 | 48.3 µM (inactive)
* COc1cc([C@@H]2c3cc4c(cc3[C@@H](NC(=O)c3cccc(N)c3)C3COC(=O)[C@@H]32)OCO4)cc(OC)c1O (stereo partly drawn) | < 0.01 µM (active)
* Cn1c(=O)cc(NNc2ccc(Cl)c(Cl)c2)[nH]c1=O | > 100 µM (inactive)
* CCCCN(CCCC)C(=O)C(=O)CC(=O)/C=C/c1ccccc1 | > 100 µM (inactive)
* O=c1c2cccnc2ncn1CCN1CCCC1 | > 100 µM (inactive)
* c1cc2c(cnc3cscc32)s1 | > 100 µM (inactive)
* Cc1c[n+]2c3ccccc3c3ccccc3c2s1.[O-][Cl+3]([O-])([O-])[O-] | 3.33 µM (inactive)
* C=C(C)C(=O)OC1C(C(C)CCCO)=C(CO)CC2OC(=O)C(=C)C21 (stereo not drawn) | 14.5 µM (inactive)
* CCC1(c2ccccc2)Sc2ccccc2-n2cccc2C1=O (stereo not drawn) | 3.79 µM (inactive)
* C=C(C)C(O)C(O)C[C@@H](C)C1CC[C@]23C[C@]12CCC1[C@@]2(C)CCC(OC(C)=O)C(C)(C)C2CC(OC2OC(CO)C(O)C(O)C2O)[C@]13C (stereo partly drawn) | 18.7 µM (inactive)
* O=C1NC(=O)C(C(CC(=O)c2ccc(Cl)cc2)c2ccc(Cl)cc2)C(=O)N1 (stereo not drawn) | 35.2 µM (inactive)
* CC1CN=C(Nc2ccc(F)c(Cl)c2)S1 (stereo not drawn) | 31.5 µM (inactive)
* Cc1nn(-c2ccccc2)c(C)c1/C=N/NC(=O)c1sc(=S)n(-c2ccccc2)c1N | 3.94 µM (inactive)
* O=C1Oc2ccccc2C(=O)/C1=C1/C=C(c2ccccc2)SS1 | 28.3 µM (inactive)
* COC(=O)C1=Cc2cc(OC)c(O)cc2[C@@H](c2ccc(O)c(OC)c2)[C@@H]1C(=O)OC | > 100 µM (inactive)
* CC(=O)C1(C(=O)C(=[N+]=[N-])S(=O)(=O)c2ccccc2)CC1 | > 100 µM (inactive)
* Cc1cc(Cc2c(C)c(C)c(Cc3cc(C)cc(C(C)(C)C)c3O)c(C)c2C)c(O)c(C(C)(C)C)c1 | 1.21 µM (inactive)
* CCOC(=O)c1cnc2oc(-c3ccc(OC)cc3)nn2c1=O | > 10 µM (inactive)
* O=C(OCCN=c1c2ccccc2ccc2ccccc12)c1cc([N+](=O)[O-])cc([N+](=O)[O-])c1 | > 100 µM (inactive)
* O=C(/C=C/c1ccccc1O)c1cccs1 | > 100 µM (inactive)
* CCOP(=O)(OCC)/C(C#N)=C/c1ccccn1 | > 100 µM (inactive)
* N#Cc1cccc(/C=N/C23CC4CC(CC(C4)C2)C3)c1 | 76.2 µM (inactive)
* Nc1ncnc2c1ncn2C1OC(CO)CC1O (stereo not drawn) | > 100 µM (inactive)
* C[n+]1c(/C=C/c2ccc(O)c3ncccc23)[se]c2ccccc21 | 1.64 µM (inactive)
* O=C1Oc2ccccc2N/C1=C/C(=O)c1ccc([N+](=O)[O-])cc1 | > 100 µM (inactive)
* COc1cc2c(cc1OC)CC1c3cc(OC)c(OC)cc3CCN1CC2 (stereo not drawn) | > 100 µM (inactive)
* C/C(=C\c1ccccc1)C(O)C(=O)c1nc2ccc(Cl)cc2nc1O (stereo not drawn) | 25.1 µM (inactive)
* OC1CN2CCS[C@H]2C(O)C1O (stereo partly drawn) | > 100 µM (inactive)
* S=c1nc2c(c[nH]1)C1c3ccccc3C2c2ccccc21 | 34 µM (inactive)
* CSC(=S)OC1C(CO[Si](C)(C)C(C)(C)C)OC2OC(C)(C)OC21 (stereo not drawn) | 13.7 µM (inactive)

----------
System: IGROV-1
ASSAY COMMENT: NCI tumour cell line growth inhibition, 48 h
The source made the active and inactive calls. Rule as the data show it: active = GI50 up to about 1.1 µM and inactive = higher.
Classes used: active, inactive

• Nc1ncnc2c1ncn2CC(O)CO (centres undefined) = inactive
• CO/C=C(/C(=O)OC)c1ccccc1[C@H]1C[C@@H]1c1ccc(OC)cc1 = inactive
• N#Cc1c(N)nc(Sc2ccccc2N)c(C#N)c1-c1ccccc1 = inactive
• Cn1c(O)c(C2=Nc3ccccc3C2=O)c2ccccc21 = inactive
• Fc1c(F)c(F)c2c(c1F)CSc1nc3ccccc3n1-2 = inactive
• C=CCOC1=C(OC(C)=O)C(C2COC(C)(C)O2)OC1=O (centres undefined) = inactive
• Cc1ccc(/N=N/c2c(O)ccc3cc(S(=O)(=O)O)ccc23)cc1 = inactive
• COc1ccccc1C(=O)Nc1ccc(Cl)c(C(=O)OC(C)C)c1 = inactive
• O=C(O)C1Cc2[nH]c3ccccc3c2C2CCCC12 (centres undefined) = inactive
• ClC1=C(Cc2ccccc2)Cc2ccc3c(c21)CCC3 = inactive
• Cn1cc(-c2ccc3c4ccccc4n(C)c3c2)c2ccccc21 = inactive
• O=C(CC(=O)N1N=C(N2CCCCC2)CC1c1ccccc1)Nc1ccc(Cl)cc1 (centres undefined) = inactive
• C1=CC(=NN=P(c2ccccc2)(c2ccccc2)c2ccccc2)C=C1 = inactive
• Cc1cc(O)c(C(C)C)cc1C(=S)Nc1ccc(Cl)cc1 = inactive
• CO/C(=N\N=C(/c1ccccc1)C(F)(F)F)c1ccncc1 = inactive
• COc1cccc(-c2cc(O)c3cccnc3n2)c1 = active
• CCOC(=O)c1ncoc1[C@H]1COC(C)(C)O1 = inactive
• CCCCCCCCCCCC(=O)OCC1OC(n2cc(F)c(=O)[nH]c2=O)C(N)C(O)C1O (centres undefined) = inactive
• CCOc1ccc2nc(-c3ccc(O)cc3)sc2c1 = inactive
• C=C1C[C@]23C[C@@]1(O)CC[C@H]2[C@@]12C=C[C@H](O)[C@@](C)(C(=O)O1)[C@H]2[C@@H]3C(=O)O [GIBBERELLIN A3] = inactive
• CC[S+]1C2=C(CC(C)(C)CC2=O)[N-]c2ccccc21 (centres undefined) = inactive
• CCOC(=O)CCC(C(=O)OCC)n1nnc2ccc(Nc3c(C)[n+]([O-])c4ccc(Cl)cc4[n+]3[O-])cc21 (centres undefined) = inactive
• O=C(c1ccccc1)c1c(CC(O)c2ccccn2)n(C(=O)c2ccccc2)c2ccccc12 (centres undefined) = inactive
• CO[P@]1(=O)O[C@@H](c2ccccc2)[C@H](O)[C@]1(O)c1ccccc1 = inactive
• O=c1[nH]nc(-c2ccccc2)n1/N=C/c1ccco1 = inactive
• CCCCN(CCCC)C(=O)C(=O)CC(=O)/C=C/c1ccccc1 = inactive
• CC(=O)c1ccc2c(c1)c1c(C)c3c[n+](C)ccc3c(C)c1n2C = inactive
• CN(NC1OC(CO)C(O)C(O)C1O)c1ccccc1 (centres undefined) = inactive
• O=C(/C(=N/Nc1ccccc1)c1ccc([N+](=O)[O-])cc1)c1ccc([N+](=O)[O-])cc1 = inactive
• O=C1c2ccccc2C(=O)c2c(NCCCN3CCOCC3)ccc(NCCCN3CCOCC3)c21 = inactive
• CC(C)=CCC[C@@H](C)C1=C(N)C(=O)C(C)=C(O)C1=O = inactive
• CCOC(=O)CSc1cc[nH]c(=O)n1 = inactive
• NC(=O)N/N=C(\C(=O)C(=O)Nc1ccc(Cl)c(C(F)(F)F)c1)c1nc2ccc(C(=O)c3ccccc3)cc2nc1O = inactive
• COC(=O)C[C@H](COCc1ccccc1)NC(=O)C[C@H](COCc1ccccc1)NC(=O)OC(C)(C)C = inactive

----------
In this section we review reported GI50 values for a set of compounds.
System: DMS-114
ASSAY COMMENT: NCI tumour cell line growth inhibition, 48 h
Active and inactive are the calls of the source. Cut-off read from the data, not from the text of the source: active = GI50 up to about 1.1 µM and inactive = higher.
MEASURE NAME: GI50

* S=c1nc2c(c[nH]1)C1c3ccccc3C2c2ccccc21 | 62.2 µM (inactive)
* C/C(=N\N(C)C)C(CN1CCCCC1)C(c1ccccc1)c1c(O)c2ccccc2oc1=O (centres undefined) | > 100 µM (inactive)
* C=C(CCCCCCCCC)CC(=O)SCCNC(=O)CCNC(=O)C(O)C(C)(C)COP(=O)(O)OP(=O)(O)OCC1OC(n2cnc3c(N)ncnc32)C(O)C1OP(=O)(O)O (centres undefined) | 55.3 µM (inactive)
* NC(=O)N/N=C(\C(=O)C(=O)Nc1ccc(Cl)c(C(F)(F)F)c1)c1nc2ccc(C(=O)c3ccccc3)cc2nc1O | 68.4 µM (inactive)

These entries and their values trace back to ChEMBL document CHEMBL1201862.
